Values compiled from patent US20180066066A1.

TARGET_DESC: human HER3 receptor on cells (human, UniProt P21860 20-1342)
Sequence (P21860 20-1342): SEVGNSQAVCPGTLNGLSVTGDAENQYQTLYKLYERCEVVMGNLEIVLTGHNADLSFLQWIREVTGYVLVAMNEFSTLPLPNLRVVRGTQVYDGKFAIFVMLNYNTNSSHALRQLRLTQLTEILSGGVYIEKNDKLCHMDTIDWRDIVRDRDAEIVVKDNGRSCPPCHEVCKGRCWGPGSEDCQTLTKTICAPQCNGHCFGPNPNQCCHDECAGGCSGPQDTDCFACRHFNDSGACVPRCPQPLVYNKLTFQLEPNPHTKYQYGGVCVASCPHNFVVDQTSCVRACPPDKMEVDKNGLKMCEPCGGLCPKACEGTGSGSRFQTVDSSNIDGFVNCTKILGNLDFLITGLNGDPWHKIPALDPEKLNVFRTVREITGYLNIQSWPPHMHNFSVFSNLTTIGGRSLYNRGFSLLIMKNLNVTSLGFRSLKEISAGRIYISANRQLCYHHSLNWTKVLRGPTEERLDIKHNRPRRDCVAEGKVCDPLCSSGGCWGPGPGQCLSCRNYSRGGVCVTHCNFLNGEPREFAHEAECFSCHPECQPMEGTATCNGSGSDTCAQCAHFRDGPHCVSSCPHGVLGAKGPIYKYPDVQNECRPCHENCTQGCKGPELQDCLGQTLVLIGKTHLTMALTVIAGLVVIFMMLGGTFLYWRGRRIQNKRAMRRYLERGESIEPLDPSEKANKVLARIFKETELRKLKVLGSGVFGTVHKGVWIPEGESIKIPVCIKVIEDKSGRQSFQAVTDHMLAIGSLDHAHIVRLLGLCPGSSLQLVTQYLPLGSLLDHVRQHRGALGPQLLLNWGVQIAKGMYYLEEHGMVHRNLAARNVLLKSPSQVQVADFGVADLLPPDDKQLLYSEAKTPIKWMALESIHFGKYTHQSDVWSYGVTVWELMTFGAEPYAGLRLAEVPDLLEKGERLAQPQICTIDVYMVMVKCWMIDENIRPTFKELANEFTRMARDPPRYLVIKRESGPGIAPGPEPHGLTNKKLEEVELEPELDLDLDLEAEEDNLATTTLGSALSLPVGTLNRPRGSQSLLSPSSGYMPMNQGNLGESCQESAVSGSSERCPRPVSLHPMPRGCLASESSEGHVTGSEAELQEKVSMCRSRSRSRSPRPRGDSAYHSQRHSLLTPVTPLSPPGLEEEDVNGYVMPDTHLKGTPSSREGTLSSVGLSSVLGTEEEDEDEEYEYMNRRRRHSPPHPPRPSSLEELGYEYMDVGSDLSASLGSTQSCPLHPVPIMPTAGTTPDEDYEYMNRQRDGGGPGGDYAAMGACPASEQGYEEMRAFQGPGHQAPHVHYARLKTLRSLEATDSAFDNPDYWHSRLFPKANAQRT
PROTOCOL_NOTES: cell-based or functional assay
# pAKT inhibition, EC50 (nM) listing for each entry below
Enter your answer as a number in nM; do not include the unit.

The cases that follow already have their pAKT inhibition, EC50 (nM) on record.
INSERT INTO results (binder, readout_kind, endpoint_value) VALUES
  ('Rab46 (antibody, V domains shown, also called Rab46 monoclonal antibody) VH: EEQLVESGGGLVQPEGSLTLTCTASGFSFSASYYIYWVRQAPGKGLEGIAYITGDDDKRTYYANWAKGRFTISKTSTTVTLQMTSLTAADTATYFCTRNLPDELWGPGTLVTVSS VL: QAVVTQTPSSVSAAVGGTVTISCQSSESVYSYKNLAWYQQKPGQPPRLLIWQASRLSSGVSSRFSGSGSGTQFTLTISGVQCDDAATYYCQGTYYSSAWDFVFGGGTEVMVE', 'pAKT inhibition, EC50 (nM)', 3.8),
  ('Rab774 (antibody, V domains shown, also called Rab774 monoclonal antibody) VH: QSVEESGGRLVTPGTPLTLTCTVSGIDLSTYAMTWVRRAPGKGLEWLGIINRSSKTYLTDWARGRFTISKTSTTVDLKISSPTTEDTATYFCGRVMSPYSVAGGDLWGPGTLVTVSS VL: QPVLTQSPSASAALGASAKLTCILSSDLSDYTIDWYKHQQGEAPRYLMQLRSDGSYTKGTGVPDRFSGSSSGADRYLVISSVQADDEADYYCGLPYSVEYVFGGGTQLTVT', 'pAKT inhibition, EC50 (nM)', 2.3);

Reported pAKT inhibition, EC50 (nM) ( Rab189 (antibody, V domains shown, also called Rab189 monoclonal antibody) VH: QESLEESGGDLVKPEGTLTLTCKASGIGFGYYYYICWVRQAPGKGLEWIACIYTGISDSTYYATWAKGRFAISKTSSTTVTLQMTSLTAADTATYFCARSDPYYTTTYTNTYPTYWNLWGPGTLVTVSS VL: CAFELTQTPSSVEAAVGGTVTIKCQASQSINNYLAWYQQKTGQPPKLLIYRASTLESGVPSRFKGSGSGTQFTLTISDLECADAATYYCQSYYYSSSNNYYNAFGGGTEVVVK ) = 3.6
